Below, each of the variants is paired with its reported self-cleavage kobs at 10000 uM GlcN6P value.
B1: glmS ribozyme (parent)
chain: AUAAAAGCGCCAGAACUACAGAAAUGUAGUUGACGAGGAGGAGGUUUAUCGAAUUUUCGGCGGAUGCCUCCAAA

variants of: B1; assay: self-cleavage kobs at 10000 uM GlcN6P; higher = faster cleavage; RNA array; settings: with glucosamine-6-phosphate
This sample holds only a part of the variants without activity.

Field: example entries. Status: answers known.
INSERT INTO assay_data (mutation_notation, measurement_type, measurement) VALUES
  ('G7A G29C U47G A53G', 'self-cleavage kobs at 10000 uM GlcN6P', '< 1e-05 s⁻¹'),
  ('G63U C67A', 'self-cleavage kobs at 10000 uM GlcN6P', '< 1e-05 s⁻¹'),
  ('A15U A39G G62A', 'self-cleavage kobs at 10000 uM GlcN6P', '< 1e-05 s⁻¹'),
  ('C11A G51A', 'self-cleavage kobs at 10000 uM GlcN6P', '< 1e-05 s⁻¹');

According to the records, this variant C16U C34G displays self-cleavage kobs at 10000 uM GlcN6P of < 1e-05 s⁻¹

According to the records, this variant G13C G59C displays self-cleavage kobs at 10000 uM GlcN6P of < 1e-05 s⁻¹

According to the records, this variant U46A U49C displays self-cleavage kobs at 10000 uM GlcN6P of < 1e-05 s⁻¹

Reference for the values: the supplement of paper PMC7125110
